Origin of values: patent EP2576536B1

assay: Rat pharmacokinetics, plasma concentration by LC-MS/MS after oral dose; format: in vivo, Sprague Dawley rats; details: male, Sprague Dawley, rat, plasma, oral, 40 mg/kg, 24 h after 40mg/kg oral gavage, N 3; BLOQ treated as 0.5 ng/mL; read-out: Mean (± sem) Concentration
MEASURED_PROPERTY: concentration at 24 h (ng/mL)
Express the result in ng/mL but write the number alone.

Prompt: Entry `NC(=O)[C@H](Cc1ccccc1)NC(=O)c1ccc(-c2cccs2)nc1` : reported concentration at 24 h = ?
Response: 0.677

---

biological target: H-PGDS (Homo sapiens); construct: made in house; host or cells: Escherichia coli BL21 DE3; experiment: H-PGDS catalyzed conjugation of GSH and CDNB, enzyme inhibition assay; type: biochemical; conditions: percent inhibition at 50 µM; Mean ± Standard Error of triplicate experiments; read-out: I[50]
Sequence (O60760 whole entry): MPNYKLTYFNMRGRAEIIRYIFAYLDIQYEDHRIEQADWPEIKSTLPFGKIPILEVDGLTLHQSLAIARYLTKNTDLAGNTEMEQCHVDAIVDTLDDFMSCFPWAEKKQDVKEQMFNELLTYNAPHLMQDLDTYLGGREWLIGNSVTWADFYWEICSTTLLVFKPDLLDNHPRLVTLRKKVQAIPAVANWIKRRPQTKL
Use y when the recorded inhibition at 50 µM is no lower than 70%; use n when it is lower.

Prompt: Confirm if inhibition at 50 µM reported for the compound Cc1csc(-c2ccc(C(=O)N[C@@H](C)c3ccc4ccccc4c3)cn2)c1 [Compound 25] is 70% or above.
Response: y

Prompt: Say whether CC(NC(=O)C(Cc1ccccc1)NC(=O)c1ccc(-c2cccs2)nc1)C(N)=O (centres unmarked) [Compound 24] shows inhibition at 50 µM of 70% or more.
Response: y

Prompt: Threshold query (inhibition at 50 µM >= 70%) on O=C(c1ccc(-c2cccs2)nc1)N1CCc2ccccc2C1 [Compound 6]
Response: y

Prompt: Answer whether inhibition at 50 µM of O=C(NC(c1ccccc1)c1ccccc1)c1ccc(-c2cccs2)nc1 [Compound 4] is greater than or equal to 70%.
Response: n

Prompt: Has CC(=O)c1ccc(-c2ccc(C(=O)N[C@@H](Cc3ccccc3)C(N)=O)cn2)s1 [Compound 18] a recorded inhibition at 50 µM greater than or equal to 70%?
Response: n

---

test: Rat pharmacokinetics, plasma concentration by LC-MS/MS after oral dose; format: in vivo, Sprague Dawley rats; conditions: male, Sprague Dawley, rat, plasma, oral, 40 mg/kg, 8 h after 40mg/kg oral gavage, N 3; read-out: Mean (± sem) Concentration
MEASURED_PROPERTY: concentration at 8 h (ng/mL)
Report the figure in ng/mL without appending any unit label.

Prompt: Could you tell me which concentration at 8 h is on file for `NC(=O)[C@H](Cc1ccccc1)NC(=O)c1ccc(-c2cccs2)nc1` ?
Response: 44.3

---

assay: Rat pharmacokinetics, plasma concentration by LC-MS/MS after oral dose; format: in vivo, Sprague Dawley rats; conditions: male, Sprague Dawley, rat, plasma, oral, 40 mg/kg, individual rat, 2 h after 40mg/kg oral gavage; read-out: Concentration
MEASURED_PROPERTY: concentration at 2 h (ng/mL)
Field: numeric (ng/mL). Do not append units.

Prompt: Which concentration at 2 h is reported for this compound? `NC(=O)[C@H](Cc1ccccc1)NC(=O)c1ccc(-c2cccs2)nc1`
Response: 94.8

---

experiment: Rat pharmacokinetics, plasma concentration by LC-MS/MS after oral dose; type: in vivo, Sprague Dawley rats; settings: male, Sprague Dawley, rat, plasma, oral, 40 mg/kg, individual rat, 24 h after 40mg/kg oral gavage; read-out: Concentration
MEASURED_PROPERTY: concentration at 24 h (ng/mL)
Respond with the bare value in ng/mL.

Prompt: Reported concentration at 24 h, compound NC(=O)[C@H](Cc1ccccc1)NC(=O)c1ccc(-c2cccs2)nc1 [Compound 3] : ____
Response: 1.03
